- experimentalSystem: TRIM25 CC-PRY/SPRY K283A/K285A (UniProt Q14258 189-630, K283A;K285A)
- Sequence (Q14258 189-630 K283A/K285A): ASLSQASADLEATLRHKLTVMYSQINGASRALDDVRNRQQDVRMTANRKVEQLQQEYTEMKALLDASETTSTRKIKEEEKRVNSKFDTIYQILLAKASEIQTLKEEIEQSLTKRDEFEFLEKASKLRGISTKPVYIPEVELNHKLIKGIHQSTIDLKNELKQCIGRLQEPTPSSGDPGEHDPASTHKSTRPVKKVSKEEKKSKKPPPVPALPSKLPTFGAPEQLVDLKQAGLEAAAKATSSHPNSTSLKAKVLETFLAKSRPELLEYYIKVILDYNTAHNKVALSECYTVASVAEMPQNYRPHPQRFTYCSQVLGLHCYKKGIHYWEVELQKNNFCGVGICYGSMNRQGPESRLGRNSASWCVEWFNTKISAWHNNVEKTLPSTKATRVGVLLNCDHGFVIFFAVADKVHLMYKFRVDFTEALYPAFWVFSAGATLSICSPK
- testName: ITC; second fitted site; ITC and filter binding: 20 mM MES pH 6.5, 75 mM NaCl, 0.5 mM TCEP (ITC 20 C, filter binding on ice); NMR: 20 mM Na phosphate pH 6.5, 150 mM NaCl, 2 mM TCEP, 293 K
- conditionSet: protein: recombinant; tags: His-Trx (removed); chain copies: 2; hairpin
propertyMeasured: Kd (µM)
Respond numerically; units are µM and should not be typed.

Asked: For the binder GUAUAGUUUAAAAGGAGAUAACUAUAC (structured_RNA) [pre-let-7a-1@2] , report Kd.
Given back: 16.6
